Target System: human DLL3 endogenously expressed on SHP77 and NCI-H82 cells (human) (UniProt Q9NYJ7)
Sequence (Q9NYJ7 27-618): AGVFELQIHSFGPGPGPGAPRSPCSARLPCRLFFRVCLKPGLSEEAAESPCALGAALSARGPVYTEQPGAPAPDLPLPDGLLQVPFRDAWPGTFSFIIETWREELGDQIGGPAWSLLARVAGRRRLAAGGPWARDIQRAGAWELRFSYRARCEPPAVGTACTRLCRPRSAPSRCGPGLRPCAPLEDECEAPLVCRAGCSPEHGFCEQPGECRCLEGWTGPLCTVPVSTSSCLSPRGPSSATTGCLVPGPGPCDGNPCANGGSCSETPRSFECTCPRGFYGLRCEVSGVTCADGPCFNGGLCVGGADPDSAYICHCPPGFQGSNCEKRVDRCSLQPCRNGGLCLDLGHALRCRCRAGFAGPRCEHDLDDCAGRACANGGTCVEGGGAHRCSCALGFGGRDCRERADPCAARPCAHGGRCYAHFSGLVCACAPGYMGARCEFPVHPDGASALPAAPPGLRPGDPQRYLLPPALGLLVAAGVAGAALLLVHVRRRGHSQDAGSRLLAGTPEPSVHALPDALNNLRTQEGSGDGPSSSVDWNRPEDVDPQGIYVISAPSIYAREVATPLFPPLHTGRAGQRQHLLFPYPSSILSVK
Method Description: FACS SHP77 cells, 20 nM
Hi there, I'd appreciate the recorded MFI for every entry that follows.
Answers are plain numbers, in MFI.

Consider the following items and state reported MFI for each.
1. mab006 scFv-hFc (Fc fusion, not shown: small tags and cut ends; a dimerising Fc or GST) scFv (part 1 of 2): DVQITQSPSYLAASPGETITINCRATKSISKYLAWYQEKPGKTNKLLIFSGSTLQSGIPSRFRGSGSGTDFTLTISSLEPEDFAMYYCQQHHEYPYTFGGGTKLEIK scFv (part 2 of 2): QVQLQQPGAELVRPGTSVKLSCKASGYTFTSYWMHWVRQRPGQGLEWIGVIDPSDSLANYNQEFKGKATLTVDTSSSTAYMQLSSLTSEDSAVYYCARDSTVVAPMDYWGQGTSVTVSS
2. mab007 scFv-hFc (Fc fusion, not shown: small tags and cut ends; a dimerising Fc or GST) scFv (part 1 of 2): DVQITQSPSYLAASPGETITINCRASTSISKYLAWYQERPGKTNKLLIYSGSTLQSGIPSRFRGSGSGTDFTLTISSLEPEDFAMYYCQQHHVYPYTFGGGTKLEIK scFv (part 2 of 2): QVQLQQPGAELVRPGTSVKLSCKASGYTFTSYWMHWVKQRPGQGLEWIGVIDPSDSLANYNQEFKGKATLTVDTSSSTAYMQLSSLTSEDSAVYYCARDSTVVAPMDYWGQGTSVTVSS
3. mab003 scFv-hFc (Fc fusion, part only; not given: VL-VH linker and human IgG1 Fc, not shown: another chain or arm of the molecule; a dimerising Fc or GST; small tags and cut ends) scFv (part 1 of 2): DVQITQSPSYLAASPGETITINCRASKSISKYLAWYQEKPGKTNKLLIYSGSTLHSGIPSRFSGSGSGTDFTLTISSLEPEDFAIYYCQQHNEYPLTFGGGTKLELK scFv (part 2 of 2): QVQLQQSGTELMKPGASVKLSCKATGYTFTGNWIEWVKQRPGHGLEWIGEILPGTGSTQYNEKFKGKATFTADPSSNTAYMQLSSLTTEDSAIYYCARWGSTVVAYDYWGQGTTLTVSS
4. mab010 scFv-hFc (Fc fusion, not shown: small tags and cut ends; a dimerising Fc or GST) scFv (part 1 of 2): DIQMTQSPASLSVSVGETVTITCRASENINSNLAWYQQKQGKSPQLLVYAATNLADGVPSRFSGSGSGTQFSLKISGLQSEDFGSYYCQHFWGLPWTFGGGTKLEIR scFv (part 2 of 2): QVQLQQSGAELARPGASMKLSCKASGYTFTSYGISWVKQITGQGLEWIGEIFPRSGNTYDNENFRGKATLTADKSSSTAYLEVRSLTSEDSAVYFCARTTVFAPYYFDYWGQGTTLTVSS

1: 718; 2: 634; 3: 1280; 4: 855
